system: 201T; assay: relative viability (nuclei count vs DMSO), 5 days (fraction); higher = more cells survive; conditions: first compound 0.05 µM
Listed molecules paired with reported relative viability
recorded endpoint: relative viability

| molecule | assayed system | recorded endpoint | quantitative result |
| --- | --- | --- | --- |
| CC1(C)CCC(c2ccc(Cl)cc2)=C(CN2CCN(c3ccc(C(=O)NS(=O)(=O)c4ccc(N[C@H](CCN5CCOCC5)CSc5ccccc5)c(S(=O)(=O)C(F)(F)F)c4)cc3)CC2)C1 [Navitoclax] + Cc1nc(NC(=O)N2CCC[C@H]2C(N)=O)sc1-c1ccnc(C(C)(C)C(F)(F)F)c1 [Alpelisib] (partner 2 µM) | 201T | relative viability | 1.02 |
| CC1(C)CCC(c2ccc(Cl)cc2)=C(CN2CCN(c3ccc(C(=O)NS(=O)(=O)c4ccc(N[C@H](CCN5CCOCC5)CSc5ccccc5)c(S(=O)(=O)C(F)(F)F)c4)cc3)CC2)C1 [Navitoclax] + CCNC(=O)c1noc(-c2cc(C(C)C)c(O)cc2O)c1-c1ccc(CN2CCOCC2)cc1 [Luminespib] (partner 0.01 µM) | 201T | relative viability | 0.982 |
| CC1(C)CCC(c2ccc(Cl)cc2)=C(CN2CCN(c3ccc(C(=O)NS(=O)(=O)c4ccc(N[C@H](CCN5CCOCC5)CSc5ccccc5)c(S(=O)(=O)C(F)(F)F)c4)cc3)CC2)C1 [Navitoclax] + COc1cccc2cc(-c3nc([C@H]4CC[C@H](C(=O)O)CC4)n4ncnc(N)c34)[nH]c12 [OSI-027] (partner 0.5 µM) | 201T | relative viability | 0.392 |

###

system: NCI-H1792; assay: relative viability (nuclei count vs DMSO), 5 days (fraction); higher = more cells survive; conditions: first compound 0.1581 µM
Listed compounds paired with reported relative viability

| compound | relative viability |
| --- | --- |
| CC1(C)CCC(c2ccc(Cl)cc2)=C(CN2CCN(c3ccc(C(=O)NS(=O)(=O)c4ccc(N[C@H](CCN5CCOCC5)CSc5ccccc5)c(S(=O)(=O)C(F)(F)F)c4)cc3)CC2)C1 [Navitoclax] + COc1cccc2cc(-c3nc([C@H]4CC[C@H](C(=O)O)CC4)n4ncnc(N)c34)[nH]c12 [OSI-027] (partner 0.5 µM) | 0.726 |
| CC1(C)CCC(c2ccc(Cl)cc2)=C(CN2CCN(c3ccc(C(=O)NS(=O)(=O)c4ccc(N[C@H](CCN5CCOCC5)CSc5ccccc5)c(S(=O)(=O)C(F)(F)F)c4)cc3)CC2)C1 [Navitoclax] + CS(=O)(=O)N1CCN(Cc2cc3nc(-c4cccc5[nH]ncc45)nc(N4CCOCC4)c3s2)CC1 [Pictilisib] (partner 1 µM) | 0.285 |
| CC1(C)CCC(c2ccc(Cl)cc2)=C(CN2CCN(c3ccc(C(=O)NS(=O)(=O)c4ccc(N[C@H](CCN5CCOCC5)CSc5ccccc5)c(S(=O)(=O)C(F)(F)F)c4)cc3)CC2)C1 [Navitoclax] + CS(=O)(=O)CCNCc1ccc(-c2ccc3ncnc(Nc4ccc(OCc5cccc(F)c5)c(Cl)c4)c3c2)o1 [Lapatinib] (partner 2 µM) | 0.938 |

###

system: NCI-H2087; experiment: relative viability (nuclei count vs DMSO), 5 days (fraction); higher = more cells survive; settings: first compound 0.1 µM
Note to self: relative viability under 0.7 means Condition met, ties and anything higher get Condition not met.

| molecule | label |
| --- | --- |
| NC(=O)Nc1cc(-c2cccc(F)c2)sc1C(=O)N[C@H]1CCCNC1 [AZD7762] + Cc1cc(Nc2cc(N3CCN(C)CC3)nc(Sc3ccc(NC(=O)C4CC4)cc3)n2)n[nH]1 [Tozasertib] (partner 0.1 µM) | Condition met |
| NC(=O)Nc1cc(-c2cccc(F)c2)sc1C(=O)N[C@H]1CCCNC1 [AZD7762] + C[C@@H](Oc1cc(-c2cnn(C3CCNCC3)c2)cnc1N)c1c(Cl)ccc(F)c1Cl [Crizotinib] (partner 1 µM) | Condition not met |
| NC(=O)Nc1cc(-c2cccc(F)c2)sc1C(=O)N[C@H]1CCCNC1 [AZD7762] + N=C(N)NC(=N)NCCc1ccccc1 [Phenformin] (partner 250 µM) | Condition met |
| NC(=O)Nc1cc(-c2cccc(F)c2)sc1C(=O)N[C@H]1CCCNC1 [AZD7762] + C[C@]1(O)C[C@@H](c2nc(-c3ccc4ccc(-c5ccccc5)nc4c3)c3c(N)nccn32)C1 [Linsitinib] (partner 1 µM) | Condition not met |
| NC(=O)Nc1cc(-c2cccc(F)c2)sc1C(=O)N[C@H]1CCCNC1 [AZD7762] + Cc1nc(Nc2ncc(C(=O)Nc3c(C)cccc3Cl)s2)cc(N2CCN(CCO)CC2)n1 [Dasatinib] (partner 0.075 µM) | Condition not met |
| NC(=O)Nc1cc(-c2cccc(F)c2)sc1C(=O)N[C@H]1CCCNC1 [AZD7762] + CS(=O)(=O)CCNCc1ccc(-c2ccc3ncnc(Nc4ccc(OCc5cccc(F)c5)c(Cl)c4)c3c2)o1 [Lapatinib] (partner 2 µM) | Condition not met |
